Molecular target: recombinant cGAS (aa147-522) (Homo sapiens, UniProt Q8N884)
Construct: recombinant cGAS (aa147-522); His6-SUMO (N, cleaved yes)
Sequence (Q8N884 147-522): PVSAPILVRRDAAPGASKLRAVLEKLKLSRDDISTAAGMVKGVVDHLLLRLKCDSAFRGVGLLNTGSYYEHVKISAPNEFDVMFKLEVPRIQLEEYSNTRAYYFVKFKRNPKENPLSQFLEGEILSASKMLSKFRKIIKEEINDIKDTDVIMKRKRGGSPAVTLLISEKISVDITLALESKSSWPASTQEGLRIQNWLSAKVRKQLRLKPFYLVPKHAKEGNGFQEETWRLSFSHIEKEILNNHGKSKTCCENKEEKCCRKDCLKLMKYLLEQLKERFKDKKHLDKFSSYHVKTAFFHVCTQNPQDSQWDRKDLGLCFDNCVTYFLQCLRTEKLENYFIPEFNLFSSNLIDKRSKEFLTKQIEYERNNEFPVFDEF
Assay: In vitro assay for inhibition of cGAS activity (ATP consumption, Kinase Glo)
Settings: 37° C. 20 minutes, read-out: Activity (Inhibition of cGAS enzyme activity in vitro, IC50)
pIC50: −log10 of the molar value.
Assay Metric: pIC50

> print(dat)
                                   molecule        result
1  COc1cc(/C=C2\SC(=O)N(C)C2=O)c(Br)cc1NS(=O)(=O)c1ccccc1 [Ex23]        ≤ 5.00
2  CN1C(=O)S/C(=C\c2cc(OCc3cncnc3N)c(O)c(F)c2Br)C1=O [ExA17]        ≥ 6.30
3  COc1cc(/C=C2\Sc3ncccc3C2=O)c(C)cc1O [Ex76]  5.00 to 6.30
4  COc1cc2c(cc1O)CC/C2=C1/SC(=O)N(C)C1=O [Ex13]        ≤ 5.00
5  CC(Oc1cc(/C=C2\SC(=O)N(C)C2=O)c(Br)cc1O)c1cnc(NCCO)nc1 (stereo not drawn) [Ex181]  5.00 to 6.30
6  CN1CCN(c2ncc(COc3cc(/C=C4\SC(=O)N(C)C4=O)c(Br)cc3O)cn2)CC1 [Ex167]  5.00 to 6.30
7  CN1C(=O)S/C(=C\c2cc(OCc3cnc(C4CCNCC4)nc3)c(O)cc2Br)C1=O [Ex95]  5.00 to 6.30
8  COc1cc(/C=C/C=C2\SC(=O)N(C)C2=O)c(Br)cc1O [Ex37]  5.00 to 6.30
9  CN1C(=O)S/C(=C\c2cc(OCc3cnc(C4CC4)nc3)c(O)cc2Br)C1=O [Ex94]  5.00 to 6.30
